# target or test system: 5-HT2A (Homo sapiens)
# Sequence (P28223 whole entry): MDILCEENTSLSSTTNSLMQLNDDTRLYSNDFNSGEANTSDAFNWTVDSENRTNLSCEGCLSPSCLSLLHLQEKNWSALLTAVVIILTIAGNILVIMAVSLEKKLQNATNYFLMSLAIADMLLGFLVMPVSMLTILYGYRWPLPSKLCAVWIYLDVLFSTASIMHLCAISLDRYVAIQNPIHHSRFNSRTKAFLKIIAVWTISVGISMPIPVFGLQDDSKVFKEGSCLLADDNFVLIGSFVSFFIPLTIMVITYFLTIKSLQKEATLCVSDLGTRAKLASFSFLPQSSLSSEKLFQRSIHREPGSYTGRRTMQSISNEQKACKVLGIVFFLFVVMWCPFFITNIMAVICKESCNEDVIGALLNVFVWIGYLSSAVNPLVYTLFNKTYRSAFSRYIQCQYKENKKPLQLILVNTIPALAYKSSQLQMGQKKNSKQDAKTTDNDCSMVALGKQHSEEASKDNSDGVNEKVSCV
# measurement protocol: cell-based
# Set-up: expressed in transfected cells; host or cells: HEK293T, transient
# measurement setup: read-out: 5-HT2A β-arrestin Emax (% 5-HT), BRET, mean ± SEM
observable: Emax

molecule: COc1cc(CCNCc2cccc(C)c2O)cc(OC)c1Br
observable: Emax
readout value: 66.1%
//
molecule: COc1cc(OC)c(OC)cc1CCNCc1cccc(Br)c1O
observable: Emax
readout value: 85%
//
molecule: COc1cc(Br)c(Br)c(OC)c1CCNCc1cccc(C)c1O
observable: Emax
readout value: 77.5%
//
molecule: COc1cc(OC)c(OC)cc1CCNCc1cccc(-c2ccccc2)c1
observable: Emax
readout value: 112%
//
molecule: COc1cccc(COc2ccccc2CNCCc2cc(OC)c(OC)cc2OC)c1
observable: Emax
readout value: 33%
//
molecule: COc1cc(OC)c(OC)cc1CCNCc1cccc(I)c1O
observable: Emax
readout value: 80.5%

For every item below, please supply its Emax.
1. COc1cc(CCNCc2cccc3ccccc23)ccc1Cl
2. COc1cc(OC)c(OC)cc1CCNCc1ccc(-c2ccccc2)s1
3. COc1cc(OC)c(OC)cc1CCNCc1cccc(C(C)(C)C)c1
4. COc1cc(OC)c(OC)cc1CCNCc1cccc(OCc2ccccc2)c1
5. COc1cc(OC)c(OC)cc1CCNCc1cccc2cnccc12
6. COc1cc(CCNCc2cccc3ccccc23)c(OC)cc1C [25D-N1-Nap (27)]

Response:
1. 80.8%
2. 78%
3. 60.4%
4. 50.3%
5. 75.8%
6. 75.5%

For every item below, please supply its Emax.
1. COc1cc(Br)cc(OC)c1CCNCc1cccc(C)c1O
2. COc1cc(OC)c(OC)cc1CCNCc1ccccc1OCc1ccccc1
3. COc1cc(OC)c(OC)cc1CCNCc1cccc2ccccc12
4. COc1cc([N+](=O)[O-])c(OC)cc1CCNCc1cccc(O)c1 [25N-NB-3-OH (21)]
5. Brc1c2c(c(CCNCc3cccc4ccccc34)c3c1OCC3)OCC2
6. COc1cc(OC)c(OC)cc1CCNCc1cccc2c1oc1ccccc12

Response:
1. 78.9%
2. 72.9%
3. 74.9%
4. 119%
5. 62.5%
6. 68.3%

For every item below, please supply its Emax.
1. COc1cc(OC)c(OC)cc1CCNCc1cccc(I)c1
2. CCOc1ccc(CCNCc2cccc3ccccc23)cc1OC
3. COc1cc(OC)c(OC)cc1CCNCc1cccc(C)c1O
4. COc1cc(OC)c(OC)cc1CCNCc1cccc2c1CCCC2
5. COc1cc(Br)cc(OC)c1CC(C)NCc1cccc2ccccc12 (centres unmarked)

Response:
1. 82.7%
2. 75.4%
3. 89.1%
4. 65%
5. 98.3%

---

# target or test system: 5-HT2A (Homo sapiens)
# measurement protocol: cell-based
# Design: expressed in transfected cells; host or cells: HEK293T, transient
# measurement setup: BRET, mean ± SEM; read-out: 5-HT2A β-arrestin recruitment pEC50 (converted)
Label Condition met when EC50 < 9 nM; otherwise Condition not met.

Example results:
molecule: COc1cc(OC)c(OC)cc1CCNCc1ccc(-c2ccccc2)s1 [(76)]
assigned label: Condition not met
//
molecule: COc1cc(CCNC2CCc3ccccc32)c(OC)cc1C (centres unmarked) [(83)]
assigned label: Condition met
//
molecule: COc1cc(OC)c(OC)cc1CCNCc1cccc(I)c1O [(49)]
assigned label: Condition not met
//
molecule: COc1cc(CCNCc2cccc(C)c2O)cc(OC)c1Br [(44)]
assigned label: Condition not met
//
molecule: COc1cc(CCNCc2cccc(C)c2O)ccc1Cl [(47)]
assigned label: Condition met
//
molecule: COc1cc(OC)c(OC)cc1CCNCc1ccc(F)c2ccccc12 [(67)]
assigned label: Condition not met

Prompt: I'd appreciate it if you could check whether COc1cc(OC)c(OC)cc1CCNCc1cccc(F)c1F [(65)] has EC50 smaller than 9 nM.
Response: Condition not met

---

# target or test system: 5-HT2B (Homo sapiens)
# Sequence (P41595 whole entry): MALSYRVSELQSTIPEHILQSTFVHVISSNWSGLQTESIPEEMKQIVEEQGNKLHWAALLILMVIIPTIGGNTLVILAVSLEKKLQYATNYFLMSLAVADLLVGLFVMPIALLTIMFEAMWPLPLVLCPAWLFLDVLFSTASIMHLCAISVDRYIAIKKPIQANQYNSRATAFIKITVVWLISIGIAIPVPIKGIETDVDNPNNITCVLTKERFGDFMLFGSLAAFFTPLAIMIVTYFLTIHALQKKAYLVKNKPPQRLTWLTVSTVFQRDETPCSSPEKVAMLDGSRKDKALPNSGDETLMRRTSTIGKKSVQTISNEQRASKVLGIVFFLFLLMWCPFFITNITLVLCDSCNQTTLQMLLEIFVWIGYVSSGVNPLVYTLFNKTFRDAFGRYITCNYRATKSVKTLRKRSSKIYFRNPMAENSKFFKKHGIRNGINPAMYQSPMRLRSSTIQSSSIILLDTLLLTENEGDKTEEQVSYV
# measurement protocol: BRET Gq dissociation, 5-HT2B
# Format: cell-based
# Design: expressed in transfected cells; host or cells: HEK293T, transient
# measurement setup: read-out: 5-HT2B Gq Dissociation (BRET) EMAX ± SEM (%5-HT)
Exercise: for every item that follows, state its recorded Emax.
Give bare numbers, in %.

Guide cases for Emax, answers given:
molecule: COc1cc([N+](=O)[O-])c(OC)cc1CCNCc1ccccc1Br [25N-NBBr (9)]
observable: Emax
readout value: 17
//
molecule: COc1cc([N+](=O)[O-])c(OC)cc1CCNCc1ccccc1 [25N-NB (2)]
observable: Emax
readout value: 32.6
//
molecule: COc1cc([N+](=O)[O-])c(OC)cc1CCNCc1ccccc1C [25N-NBMe (6)]
observable: Emax
readout value: 22.2

# Emax measured on 5-HT2B (Homo sapiens) for item COc1cc([N+](=O)[O-])c(OC)cc1CCNCc1ccccc1OC [25N-NBOMe (4)] = 61.8

---

pKi data for 5-HT1D (Homo sapiens, UniProt P28221) follow.
pKi: −log10 of the molar value.

Guide cases for pKi, answers given:
compound: COc1cc([N+](=O)[O-])c(OC)cc1CCNCc1ccccc1OC [25N-NBOMe (4)]
readout value: 5.25

compound: COc1cc([N+](=O)[O-])c(OC)cc1CCNCc1cccc(O)c1 [25N-NB-3-OH (21)]
readout value: < 5.00

compound: COc1cc([N+](=O)[O-])c(OC)cc1CCNCc1ccccc1[N+](=O)[O-] [25N-NBNO2 (15)]
readout value: < 5.00

Now look at this one.
Record COc1cc([N+](=O)[O-])c(OC)cc1CCNCc1cccc2c1OC(F)(F)O2 [25N-NBMDF2 (13)] , field pKi: < 5.00

---

Ki data for 5-HT6 (Homo sapiens) follow.

Guide cases for Ki, answers given:
compound: COc1cc([N+](=O)[O-])c(OC)cc1CCNCc1ccccc1I [25N-NBI (10)]
readout value: 380 nM
//
compound: COc1ccc(OC)c(CNCCc2cc(OC)c([N+](=O)[O-])cc2OC)c1 [25N-NB-2,5-DiMeO (20)]
readout value: > 10000 nM
//
compound: COc1cc([N+](=O)[O-])c(OC)cc1CCNCc1cccc(F)c1OC [25N-NB-2-MeO-3-F (19)]
readout value: > 10000 nM

For every item below, please supply its Ki.
1. COc1cc([N+](=O)[O-])c(OC)cc1CCNCc1cccc(C)c1O [25N-NB-2-OH-3-Me (18)]
2. COc1cc([N+](=O)[O-])c(OC)cc1CCNCc1ccccc1C(F)(F)F [25N-NBCF3 (14)]
3. COc1cc([N+](=O)[O-])c(OC)cc1CCNCc1ccccc1[N+](=O)[O-] [25N-NBNO2 (15)]
4. COc1cc([N+](=O)[O-])c(OC)cc1CCNCc1cccc(O)c1 [25N-NB-3-OH (21)]
5. COc1cc([N+](=O)[O-])c(OC)cc1CCNCc1ccccc1OC [25N-NBOMe (4)]
6. COc1cc([N+](=O)[O-])c(OC)cc1CCN [2C-N (1), reference compound]
7. COc1cc([N+](=O)[O-])c(OC)cc1CCNCc1cccc2ccccc12 [25N-N-1-Nap (16)]

Response:
209 nM
407 nM
> 10000 nM
69.2 nM
55 nM
251 nM
79.4 nM

---

# target or test system: 5-HT2C (Homo sapiens)
# Sequence (P28335 33-458): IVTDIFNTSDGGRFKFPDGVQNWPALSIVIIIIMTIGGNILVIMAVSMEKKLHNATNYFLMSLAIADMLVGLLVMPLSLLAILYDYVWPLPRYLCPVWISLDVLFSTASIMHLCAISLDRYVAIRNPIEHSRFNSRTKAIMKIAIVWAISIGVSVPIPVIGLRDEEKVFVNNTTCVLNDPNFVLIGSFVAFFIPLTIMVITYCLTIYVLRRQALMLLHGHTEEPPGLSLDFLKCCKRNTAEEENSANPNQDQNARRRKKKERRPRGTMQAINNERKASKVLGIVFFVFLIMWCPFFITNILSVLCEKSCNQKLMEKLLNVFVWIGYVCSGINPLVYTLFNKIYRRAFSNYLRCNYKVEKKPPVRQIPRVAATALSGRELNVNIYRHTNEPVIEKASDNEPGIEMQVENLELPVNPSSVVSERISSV
# measurement protocol: Ca2+ flux assay, 5-HT2C
# Format: cell-based
# Set-up: expressed in transfected cells
# measurement setup: 5-HT2C EC50, nM
Label class 1 when EC50 < 50 nM; otherwise class 0.

Example results:
compound: COc1cc([N+](=O)[O-])c(OC)cc1CCNCc1ccccc1O [25N-NBOH (3)]
assigned label: class 1
//
compound: COc1cc([N+](=O)[O-])c(OC)cc1CCNCc1ccccc1C(F)(F)F [25N-NBCF3 (14)]
assigned label: class 0
//
compound: COc1cc([N+](=O)[O-])c(OC)cc1CCNCc1ccccc1Cl [25N-NBCl (8)]
assigned label: class 0
//
compound: COc1cc([N+](=O)[O-])c(OC)cc1CCNCc1ccccc1[N+](=O)[O-] [25N-NBNO2 (15)]
assigned label: class 0
//
compound: CCOc1ccccc1CNCCc1cc(OC)c([N+](=O)[O-])cc1OC [25N-NBOEt (5)]
assigned label: class 1
//
compound: COc1cc([N+](=O)[O-])c(OC)cc1CCNCc1cccc2c1OC(F)(F)O2 [25N-NBMDF2 (13)]
assigned label: class 0

Prompt: I'd appreciate it if you could check whether COc1cc([N+](=O)[O-])c(OC)cc1CCNCc1ccccc1C [25N-NBMe (6)] has EC50 smaller than 50 nM.
Response: class 1

Prompt: I'd appreciate it if you could check whether COc1cc([N+](=O)[O-])c(OC)cc1CCNCc1ccccc1I [25N-NBI (10)] has EC50 smaller than 50 nM.
Response: class 0

Prompt: I'd appreciate it if you could check whether COc1cc([N+](=O)[O-])c(OC)cc1CCNCc1ccccc1F [25N-NBF (7)] has EC50 smaller than 50 nM.
Response: class 1

Prompt: I'd appreciate it if you could check whether COc1cc([N+](=O)[O-])c(OC)cc1CCNCc1cccc(C)c1 [25N-NB-3-Me (22)] has EC50 smaller than 50 nM.
Response: class 1

Prompt: I'd appreciate it if you could check whether COc1cc([N+](=O)[O-])c(OC)cc1CCNCc1ccccc1OC(F)F [25N-NBOCF2H (11)] has EC50 smaller than 50 nM.
Response: class 1
